- method-summary: Lipophilicity determination by gradient HPLC (log k′g)
- Assay type: physicochemical
- assay-context: HPLC gradient 1, RP-18, triethylammonium phosphate buffer pH 6.5 / methanol (ion pair chromatography)
Exercise: state measured log k′g for each of the compounds provided.
Give bare numbers.

Example entries and their recorded answers appear below.
{"compound": "Nc1ncnc2c1ncn2[C@@H]1O[C@@H]2COP(=O)(O)OC3C(O)[C@H](n4cnc5ccccc54)O[C@@H]3COP(=O)(O)OC2C1F (stereo partly shown)", "log k′g": 1.322}
{"compound": "Nc1ncnc2c1ncn2[C@@H]1O[C@@H]2COP(=O)(O)OC3C(O)[C@H](n4cnc5cc(Cl)c(Cl)cc54)O[C@@H]3COP(=O)(O)OC2C1F (stereo partly shown)", "log k′g": 2.039}
{"compound": "Nc1nc2c(ncn2[C@@H]2O[C@@H]3COP(=O)(O)O[C@H]4[C@@H](O)[C@H](n5cnc6c(N)ncnc65)O[C@@H]4COP(=O)(O)O[C@@H]2[C@@H]3O)c(=O)[nH]1 [2′,3′-cGAMP, reference compound]", "log k′g": 0.766}
{"compound": "O=P1(O)OC[C@H]2O[C@@H](n3cnc4ccccc43)C(O)C2OP(=O)(O)OC[C@H]2O[C@@H](n3cnc4ccccc43)C(O)C2O1 (stereo partly shown)", "log k′g": 1.732}
{"compound": "Nc1nc2c(ncn2[C@@H]2O[C@@H]3COP(=O)(O)O[C@H]4[C@@H](O)[C@H](n5cnc6c(=O)[nH]c(N)nc65)O[C@@H]4COP(=O)(O)O[C@H]3[C@H]2O)c(=O)[nH]1 [c-diGMP, reference compound]", "log k′g": 0.840}
{"compound": "O=P1(O)OC[C@H]2O[C@@H](n3cnc4cc(Cl)c(Cl)cc43)C(O)C2OP(=O)(O)OC[C@H]2O[C@@H](n3cnc4cc(Cl)c(Cl)cc43)C(O)C2O1 (stereo partly shown)", "log k′g": 2.970}

[in] Recorded log k′g of O=c1[nH]cnc2c1ncn2[C@@H]1O[C@@H]2COP(=O)(O)OC3C(O)[C@H](n4cnc5ccccc54)O[C@@H]3COP(=O)(O)OC2C1F (stereo partly shown) , please.
[out] 1.211
